FYI, the data here is from paper PMC4526366.

Tested on: thrombin (α-thrombin)
Experiment: thrombin at 1 μM in 1X TBS (10 X dilution of 10 X TBS pH 7.4)
Conditions: 37°C, up to 2 hours

POLYMER_SEQUENCE: EPAKPRLPVPGSGRDSERIPVPVD
EXPERIMENTAL_SYSTEM: thrombin (α-thrombin)
cleaved bond: Arg41-Leu42, two hours

POLYMER_SEQUENCE: KPNLQSRSDDGVDESDYDTYPDDNNDDSGERNGGSEPAKPRLPVPGSGRDSERIPVPVD
EXPERIMENTAL_SYSTEM: thrombin (α-thrombin)
cleaved bond: Arg41-Leu42, two hours

###

Target: α-thrombin (Homo sapiens, UniProt P00734)
Construct: purchased Sigma; Haematologic Technologies; or prepared in house from prothrombin (Enzyme Research Laboratories) with Oxyuranus scutellatus venom
Assay: Surface plasmon resonance, thrombin binding to immobilized peptide
Conditions: SPR, immobilized biotinylated peptide, 150 mM NaCl; read-out: calculated dissociation equilibrium constant (KD)
Where no end group is shown, it is not given here.
PROPERTY_MEASURED: pKd
Bear in mind: pKd is minus log10 of a mol/L concentration; give just that figure.

Data request: // fetch pKd for KPNLQSRSDDGVDESDYDTYPDDNNDDSGERNGGSEPAKPRLPVPGSGRDSERIPVPVD [hyalomin-1] ; system: α-thrombin (Homo sapiens, UniProt P00734)
Data returned: 7.72

###

Molecular target: thrombin (Homo sapiens, UniProt P00734)
Experiment: biochemical
Where no end group is shown, it is not given here.
PROPERTY_MEASURED: IC50

Data request: Send back thrombin (Homo sapiens, UniProt P00734) IC50 of KPNLQSRSDDGVDESDYDTYPDDNNDDSGERNGGSEPAKPRLPVPGSGRDSERIPVPVD [hyalomin-1] only.
Data returned: ~25 nM
